# IC50 per entry
Molecular target: cdk4/cyclin D1 (Homo sapiens, UniProt P11802)
Construct: made in house; host or cells: Sf9 insect cells (Bac-to-Bac baculovirus, pFastBac)
Sequence (P11802 whole entry): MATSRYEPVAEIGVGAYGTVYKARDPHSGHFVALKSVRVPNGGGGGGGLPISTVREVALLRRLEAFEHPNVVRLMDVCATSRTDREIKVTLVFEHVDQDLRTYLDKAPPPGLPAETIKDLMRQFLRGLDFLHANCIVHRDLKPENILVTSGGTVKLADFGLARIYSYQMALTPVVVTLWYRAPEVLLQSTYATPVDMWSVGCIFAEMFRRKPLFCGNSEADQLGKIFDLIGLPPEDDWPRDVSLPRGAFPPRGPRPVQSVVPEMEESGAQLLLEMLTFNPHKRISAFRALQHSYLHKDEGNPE
Sequence (P24385 whole entry partner): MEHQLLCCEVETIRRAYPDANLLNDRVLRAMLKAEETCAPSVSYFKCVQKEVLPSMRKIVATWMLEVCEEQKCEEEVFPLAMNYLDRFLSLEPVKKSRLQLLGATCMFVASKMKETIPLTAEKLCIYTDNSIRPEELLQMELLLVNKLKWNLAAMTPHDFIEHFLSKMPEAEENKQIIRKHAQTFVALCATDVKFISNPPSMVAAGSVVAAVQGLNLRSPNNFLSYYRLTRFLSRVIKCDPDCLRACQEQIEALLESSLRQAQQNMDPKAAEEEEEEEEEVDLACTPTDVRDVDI
Experiment: Cyclin-dependent Kinase 4 Assay (cdk4/cyclin D1, GST-Rb substrate)
Type: biochemical
Details: cdk4/cyclin D1 insect cell lysate, 10 μM ATP, 30 min at 37° C., several values = separate determinations, read-out: CDK4 Inhibition IC50
Structures can show the parent of a compound that is named as a salt.
Report only the number, with the unit µM understood.

Here is how some compounds turned out for IC50.
{"compound": "N[C@H]1CC[C@H](Nc2nc(NCc3cccc4ccccc34)c3ncn(C4CCCC4)c3n2)CC1 [Example 7, dihydrochloride]", "IC50 / µM": 1.4}
{"compound": "N[C@H]1CC[C@H](Nc2nc(NC3CCN(Cc4ccc(Cl)c(Cl)c4)CC3)c3ncn(C4CCCC4)c3n2)CC1 [Example 147-o, trihydrochloride]", "IC50 / µM": 1.8}

Just so you know, measured IC50 for `Cc1ccccc1CN1CCC(Nc2nc(N[C@H]3CC[C@H](N)CC3)nc3c2ncn3C2CCCC2)CC1` came out at 2.3

Just so you know, measured IC50 for CCN(CC)CCCNc1nc(N[C@H]2CC[C@H](N)CC2)nc2c1ncn2C1CCCC1 [Example 18, dihydrochloride] came out at 1.4

Just so you know, measured IC50 for `N[C@H]1CC[C@H](Nc2nc(NC3CCN(Cc4c(Cl)cccc4Cl)CC3)c3ncn(C4CCCC4)c3n2)CC1` came out at 6.7

Just so you know, measured IC50 for CCCCCc1ccc(Nc2nc(N[C@H]3CC[C@H](N)CC3)nc3c2ncn3C2CCCC2)cc1 [Example 23, dihydrochloride] came out at 4

Just so you know, measured IC50 for N[C@H]1CC[C@H](Nc2nc(NC3CCN(Cc4ccccc4F)CC3)c3ncn(C4CCCC4)c3n2)CC1 [Example 147-k, trihydrochloride] came out at 2.9

###

Tested on: PC-3
Assay: In vitro tumor cell proliferation, PC-3
Format: cell-based, human
Conditions: PC-3; many values given with an undefined *; trihydrochloride; read-out: In vitro Tumor Cell Proliferation (IC50, μM) Prostate PC-3
Counter-ions that a name gives are not always drawn.
# IC50 per entry
Report only the number, with the unit µM understood.

Here is how some compounds turned out for IC50.
{"compound": "N[C@H]1CC[C@H](Nc2nc(NC3CCN(Cc4cccc(Oc5ccccc5)c4)CC3)c3ncn(C4CCCC4)c3n2)CC1 [Example 147-ad, trihydrochloride]", "targetUnderTest": "PC-3", "IC50 [µM]": 0.86}
{"compound": "N[C@H]1CC[C@H](Nc2nc(NCC3CCN(Cc4ccccc4)CC3)c3ncn(C4CCCC4)c3n2)CC1 [Example 147-ac, trihydrochloride]", "targetUnderTest": "PC-3", "IC50 [µM]": 0.82}
{"compound": "N[C@H]1CC[C@H](Nc2nc(NCCNc3ccccc3)c3ncn(C4CCCC4)c3n2)CC1 [Example 31, trihydrochloride]", "targetUnderTest": "PC-3", "IC50 [µM]": 1.9}
{"compound": "N[C@H]1CC[C@H](Nc2nc(NC3CCN(Cc4ccc(F)c(F)c4)CC3)c3ncn(C4CCCC4)c3n2)CC1 [Example 147-u, trihydrochloride]", "targetUnderTest": "PC-3", "IC50 [µM]": 0.43}
{"compound": "N[C@H]1CC[C@H](Nc2nc(NC3CCN(Cc4cccc(C(F)(F)F)c4)CC3)c3ncn(C4CCCC4)c3n2)CC1 [Example 147-m, trihydrochloride]", "targetUnderTest": "PC-3", "IC50 [µM]": 0.5}

Just so you know, measured IC50 for N[C@H]1CC[C@H](Nc2nc(NC3CCN(Cc4cc(Cl)ccc4Cl)CC3)c3ncn(C4CCCC4)c3n2)CC1 [Example 147-r, trihydrochloride] came out at 0.55

Just so you know, measured IC50 for N[C@H]1CC[C@H](Nc2nc(NC3CCN(Cc4cc(F)cc(F)c4)CC3)c3ncn(C4CCCC4)c3n2)CC1 [Example 147-g, trihydrochloride] came out at 0.39
